Tested on: Wolbachia pipientis
protocol_notes: Anti-Wolbachia Cell-Based Screen
Format: functional
Parameters: scale not given: in the data most compounds retested in dose-response had high values
assay_conditions: 5 µM
Hit rate of the full screen: of about 48,000 compounds, about 13,000 (27%) showed an effect of 50% or more. The list shows a part of the results.
Percent Effect: recorded values
value_type: Percent Effect (%)

1) COCCNS(=O)(=O)c1ccc(CNc2ncccc2C#N)cc1
18.7
2) Cc1ccc(CC(=O)N2CCc3nnc(N(C)C)cc3C2)cn1
-3.136
3) COc1ccc(CN2C[C@@H](F)[C@@H](OCc3nc4cnccc4[nH]3)C2)cn1
-7.55
4) CN1[C@H]2CC[C@@H]1CN(C(=O)c1sccc1S(N)(=O)=O)CC2
-9.156
5) c1ccc(C2CCCCN2Cc2nc(-c3cnccn3)no2)nc1 (stereo unspecified)
12.62
6) COc1ccnc(CN2CCC(O)(c3ccc(C)cn3)CC2)c1OC
-7.822
7) Cc1cc(C(=O)N[C@H](C)c2onc(C)c2C(=O)O)c(C)o1.Cl
-8.572
8) Cc1[nH]c(-c2ccccc2)nc1C(=O)N1CC[C@H](CO)[C@@H](O)C1
5.886
9) CCC(=O)c1ccc(OCC(=O)NC(C)Cc2cc(C)n[nH]2)cc1 (stereo unspecified)
-9.204
10) Nc1nccc(N2CCC(Cc3ccccc3Cl)(C(=O)O)CC2)n1
-23.92
11) O=C1CN(Cc2cn(C3CCN(C4CSCCSC4)CC3)nn2)CCN1
9.418
12) CC(C)c1nc(C2CCCN(c3ncccn3)C2)no1 (stereo unspecified)
10.51
13) O=C([C@@H]1CCO[C@@H]2CCN(CC3CCOCC3)C[C@H]21)N1CCCC1
-12.21
14) CO[C@H]1CN(C(=O)c2cc3ccccc3[nH]2)CC[C@H]1N
117
15) CC(NC1(CNC(=O)C(C)(C)C#N)CCOCC1)c1ccccc1 (stereo unspecified)
-5.654
16) FC(F)(F)c1cc(C2CCCN(c3cnccn3)C2)n2ccnc2n1 (stereo unspecified)
112.2
17) c1ccc(-c2ncc(CN3CCCCC3CCn3cccn3)cn2)nc1 (stereo unspecified)
-35.25
18) Cc1nnc(CCNC(=O)c2coc(CN3CCOCC3)c2)s1
-3.668
19) Cc1cc(Cl)ccc1S(=O)(=O)NCC(C)N1CCN(C)CC1 (stereo unspecified)
0.8605
20) CO[C@H]1CN(S(=O)(=O)c2cn(C)cn2)[C@@H]2CCCO[C@H]12
-0.7123
21) CC(C)N1CCCC(c2cc(C(F)(F)F)nc3nccn23)C1 (stereo unspecified)
97.97
22) CSc1ccc(NS(=O)(=O)c2cnn(C)c2)cn1
-3.394
23) CNc1nccc(C2CCCCN2Cc2cnn3cccnc23)n1 (stereo unspecified)
117.1
24) COc1cccc2ccc(N3CCC(O)(c4ccc(C)cn4)CC3)nc12
110
25) COc1ccccc1OC1(C(=O)O)CCN(c2ccccn2)CC1
-33.54
26) CC(C)n1ccnc1C1CCCN(c2nc3ccccc3s2)C1 (stereo unspecified)
8.79
27) CN(C)C(=O)CCS(=O)(=O)Cc1ccn(-c2cccc(F)c2)n1
-10.5
28) c1ccc(C2CCCN2Cc2nc(-c3cnccn3)no2)nc1 (stereo unspecified)
-14.84
29) COc1cccc(CN2CCC(O)(c3ccc(C)cn3)CC2)c1OC
-1.243
30) CO[C@H]1CN(Cc2nc3ccccc3n2C)C[C@@]12CCCO2
116
31) CC(=O)Nc1ccsc1C(=O)N1CC[C@@H]2CC[C@H](C1)N2C
-9.655
32) COC(=O)N1CCC(NC(=O)Cn2cc(C)c3ccccc32)CC1
-17.34
33) CN(C)CCC1CCCCN1Cc1cnc(-c2ccccn2)nc1 (stereo unspecified)
-28.12
34) COc1ccc(C(=O)O)c(OCC(=O)NC(C)c2ccc(F)cc2)c1 (stereo unspecified)
-5.25
35) O=C(c1cccc(-c2ncc[nH]2)c1)N1CC[C@H](CO)[C@@H](O)C1
-2.343
36) COc1cccc2ccc(N3CCC(O)(C(=O)O)CC3)nc12
85.02
37) CO[C@H]1CN(C(=O)c2ccc(-c3cc[nH]n3)cc2)CC[C@H]1N
5.265
38) CCc1nnc(CN(C)CC2CCCCC2)o1
93.73
39) O=C(CCc1ccco1)Nc1ncn(CC(=O)N2CCCCCC2)n1
1.429
40) CO[C@H]1CN(Cc2nc3ccccc3n2C)CC[C@@]12CCCO2
137.2
41) N#Cc1ccc(N2CCN(c3cnccn3)CC2)cc1C(F)(F)F
-11.21
42) Cc1nnc(CN(C)CC2CCCCC2)o1
96.6
43) CC(C)N1CC[C@H](c2nc3ccc(C(F)(F)F)cc3[nH]2)C1
-4.029
44) Cc1nc(N2CCCC2)nc(N2CCC(O)(C(=O)O)CC2)c1C
-11.99
45) Cn1c(CO[C@H]2CN(S(C)(=O)=O)C[C@H]2F)nc2ccccc21
0.03029
46) COc1ccc(OC)c(C2CCN(CC(C)(C)N3CCOCC3)C2)c1 (stereo unspecified)
-1.124
